# Measured on: T1, human PCSK9 (proprotein convertase subtilisin kexin type 9) (human, UniProt Q8NBP7 31-692)
# T1 construct: Directly immobilized (SPR ProteOn), biotinylated (BLI), or in solution, depending on the assay; also called hPCSK9
# Method description: BLI, biotinylated hPCSK9 on sensor tips
pKd: −log10 of the molar value.

Binder | pKd
ATI001114 (designed binder, PEGylated on the cysteine of the C-terminal GSGC tail (two-branched 40 kDa PEG), PEGylated version of the 2013E01 Adnectin, His6-tagged; also called ATI1114) MGVSDVPRDLEVVAATPTSLLISWVPPSDDYGYYRITYGETGGNSPVQEFTVPIGKGTATISGLKPGVDYTITVYAVEFPWPHAGYYHRPISINYRTGSGCHHHHHH | 8.31
2971A09 (designed binder, Anti-PCSK9 Adnectin, His6-tagged) MGVSDVPRDLEVVAATPTSLLISWDAPADDYGYYRITYGETGGNSPVQEFTVPIGKGTATISGLKPGVDYTITVYAVEFPWPHAGYYHRPISINYRTEIDKPSQHHHHHH | 8.55

Source listed as patent US20120094909A1.
